experimental_details: Cytotoxicity determination in HepG2.2.15 cells (CCK-8)
Type: cell-based
experimental_conditions: human, 6 days treatment, CCK-8, highest concentration 100 uM
Method: Example 2: Anti-Viral Assay in HepG2.2.15 Cells 1.1. […] After 6 days of compounds treatment, add 20 μl CCK-8 reagents to each well of cytotoxicity assay plates, incubate the plate at 37° C., 5% CO2 for 2.5 h and measure the absorbance at 450 nm wavelength, at the same time read the absorbance at 630 nm wavelength as reference. EC50 and CC50 values are calculated by the GRAPHPAD PRISM software.
Quick reference for CC50 at 6 days among some molecules
Respond with the bare value in µM.

>>> df
                                   molecule  readout_number
0  CCOC(=O)C1=C([C@H]2CC[C@H](c3nc(C(=O)O)co3)CC2)NC(c2nccs2)=NC1c1ccc(F)cc1Cl (single isomer, unassigned)            7.64
1  CCOC(=O)C1=C(C2CCN(c3ncc(C)c(C(=O)O)n3)CC2)NC(c2nccs2)=NC1c1cccc(F)c1C (single isomer, unassigned)            12.4
2  CCOC(=O)C1=C(C2CCN(c3ncc(C(=O)O)cn3)C(C)C2)NC(c2nccs2)=NC1c1ccc(F)c(F)c1Cl (stereo not drawn)            7.96

I have this molecule here, COC(=O)C1=C(C2CCN(c3cc(C(=O)O)c(N(C)C)cn3)CC2)NC(c2nccs2)=NC1c1ccc(F)c(F)c1Cl (single isomer, unassigned) , and I need its recorded CC50 at 6 days.
28.9

I have this molecule here, COC(=O)C1=C([C@H]2CC[C@H](c3nc(C(=O)O)co3)CC2)NC(c2nccs2)=NC1c1cccc(F)c1Cl (single isomer, unassigned) , and I need its recorded CC50 at 6 days.
19.3

I have this molecule here, CCOC(=O)C1=C(C2CCN(c3nc(C(=O)OCC)co3)C2)NC(c2nccs2)=NC1c1ccc(F)c(F)c1Cl (single isomer, unassigned) , and I need its recorded CC50 at 6 days.
11.6

I have this molecule here, CCOC(=O)C1=C(C2CN(c3nc(C(=O)O)co3)C2)NC(c2nccs2)=NC1c1ccc(F)c(F)c1Cl (single isomer, unassigned) , and I need its recorded CC50 at 6 days.
9.4

I have this molecule here, COC(=O)C1=C(C2CCN(c3nc(C(=O)O)co3)CC2)NC(c2nccs2)=NC1c1ccc(F)c(F)c1Cl (single isomer, unassigned) , and I need its recorded CC50 at 6 days.
18.6

I have this molecule here, CCOC(=O)C1=C(C2CCN(c3ncc(OCC)c(C(=O)O)n3)CC2)NC(c2nccs2)=NC1c1ccc(F)c(F)c1Cl (single isomer, unassigned) , and I need its recorded CC50 at 6 days.
16.3

I have this molecule here, CCOC(=O)C1=C(C2CCN(c3cc(C(=O)O)c(C(F)(F)F)cn3)CC2)NC(c2nccs2)=NC1c1ccc(F)c(F)c1Cl (single isomer, unassigned) , and I need its recorded CC50 at 6 days.
5.38

I have this molecule here, COC(=O)C1=C([C@H]2CC[C@H](c3nc(C(=O)O)co3)CC2)NC(c2nccs2)=NC1c1ccc(F)c(F)c1Cl (single isomer, unassigned) , and I need its recorded CC50 at 6 days.
13.6

I have this molecule here, CCOC(=O)C1=C([C@H]2CC[C@@H](n3nccc3C(=O)O)CC2)NC(c2nccs2)=NC1c1ccc(F)c(F)c1Cl (single isomer, unassigned) , and I need its recorded CC50 at 6 days.
7.59

Values from patent US11053235B2
